FYI, the data here is from patent US8017807B2.

assay-notes: Solubility to alcohol (methanol), visual observation
Type: physicochemical
Design: key: ◯: The compound is perfectly dissolved in methanol, and the resultant liquid contains no solid material.; X: The compound is imperfectly dissolved in methanol and the resultant liquid contains a solid material or is opaque (i.e., is not transparent)
experimental-conditions: methanol solution, solid content 30% by weight, one hour at room temperature, visual
endpoint: Solubility to methanol, solid content 30% by weight

Here is how some compounds turned out for Solubility to methanol, solid content 30% by weight.
Cc1ccc(N(c2ccc(C)cc2)c2ccc(C=C(c3ccc(OCCO)cc3)c3ccc(OCCO)cc3)cc2)cc1 [Comp. compound (9)]: X
Oc1cccc(N(c2ccccc2)c2ccc(-c3ccc(N(c4ccccc4)c4cccc(O)c4)cc3)cc2)c1 [Comp. compound (7)]: X
CCc1ccc(N(c2ccc(CCO)cc2)c2ccc(CCO)cc2)cc1C [Comp. compound (8)]: ◯
Cc1ccc(N(c2ccc(C)cc2)c2ccc(C(C)(c3ccc(O)cc3)c3ccc(O)cc3)cc2)cc1 [Comp. compound (6)]: ◯

In the following, a different compound is considered.
[ask] Requested read-out: Solubility to methanol, solid content 30% by weight. Entry: Cc1ccc(N(c2ccc(C)cc2)c2ccc(C=C(c3ccc(OCC(O)CO)cc3)c3ccc(OCC(O)CO)cc3)cc2)cc1 (centres unmarked) [Compound of Ex. 1]
[reply] ◯

* * *

assay-notes: Solubility to alcohol (methanol), visual observation
Format: physicochemical
Set-up: key: ◯: The compound is perfectly dissolved in methanol, and the resultant liquid contains no solid material.; X: The compound is imperfectly dissolved in methanol and the resultant liquid contains a solid material or is opaque (i.e., is not transparent)
experimental-conditions: methanol solution, solid content 20% by weight, one hour at room temperature, visual
endpoint: Solubility to methanol, solid content 20% by weight

Here is how some compounds turned out for Solubility to methanol, solid content 20% by weight.
Cc1ccc(N(c2ccc(C)cc2)c2ccc(C=C(c3ccc(OCCO)cc3)c3ccc(OCCO)cc3)cc2)cc1: X
Oc1cccc(N(c2ccccc2)c2ccc(-c3ccc(N(c4ccccc4)c4cccc(O)c4)cc3)cc2)c1: ◯
CCc1ccc(N(c2ccc(CCO)cc2)c2ccc(CCO)cc2)cc1C: ◯
Cc1ccc(N(c2ccc(C)cc2)c2ccc(C=C(c3ccc(OCC(O)CO)cc3)c3ccc(OCC(O)CO)cc3)cc2)cc1 (centres unmarked): ◯

In the following, a different compound is considered.
[ask] Requested read-out: Solubility to methanol, solid content 20% by weight. Entry: Cc1ccc(N(c2ccc(C)cc2)c2ccc(C(C)(c3ccc(O)cc3)c3ccc(O)cc3)cc2)cc1
[reply] ◯

* * *

assay-notes: Film formability when mixed 1:1 with alcohol-soluble polyamide resin (CM8000), blade-coated layer
Format: physicochemical
Set-up: key: ◯: The resultant layer is transparent.; X: The resultant layer is opaque due to crystallization of the compounds or bad compatibility with the resin
experimental-conditions: 1:1 by weight with polyamide resin CM8000, solid content 20% by weight, 20 μm layer on aluminum plate, dried at 23° C.
Experimental: In addition, each of the compound of Example 1 and comparative compounds (6) to (9) was mixed with an alcohol-soluble polyamide resin (CM8000 from Toray Industries, Inc.) in a weight ratio of 1:1 such that the solid content of the mixture is 20% by weight. Each of the mixtures was coated on an aluminum plate by a blade coating method and then dried at room temperature (23° C.) to prepare a layer with a thickness of 20 μm. […]
endpoint: Film formability

Cc1ccc(N(c2ccc(C)cc2)c2ccc(C=C(c3ccc(OCC(O)CO)cc3)c3ccc(OCC(O)CO)cc3)cc2)cc1 (stereo not shown): ◯
CCc1ccc(N(c2ccc(CCO)cc2)c2ccc(CCO)cc2)cc1C: X
Cc1ccc(N(c2ccc(C)cc2)c2ccc(C(C)(c3ccc(O)cc3)c3ccc(O)cc3)cc2)cc1: X
Oc1cccc(N(c2ccccc2)c2ccc(-c3ccc(N(c4ccccc4)c4cccc(O)c4)cc3)cc2)c1: X

* * *

assay-notes: Solubility to alcohol (methanol), visual observation
Assay type: physicochemical
Parameters: key: ◯: The compound is perfectly dissolved in methanol, and the resultant liquid contains no solid material.; X: The compound is imperfectly dissolved in methanol and the resultant liquid contains a solid material or is opaque (i.e., is not transparent)
experimental-conditions: methanol solution, solid content 50% by weight, one hour at room temperature, visual
endpoint: Solubility to methanol, solid content 50% by weight

Here is how some molecules turned out for Solubility to methanol, solid content 50% by weight.
Cc1ccc(N(c2ccc(C)cc2)c2ccc(C=C(c3ccc(OCCO)cc3)c3ccc(OCCO)cc3)cc2)cc1: X
Cc1ccc(N(c2ccc(C)cc2)c2ccc(C(C)(c3ccc(O)cc3)c3ccc(O)cc3)cc2)cc1: X
CCc1ccc(N(c2ccc(CCO)cc2)c2ccc(CCO)cc2)cc1C: X
Cc1ccc(N(c2ccc(C)cc2)c2ccc(C=C(c3ccc(OCC(O)CO)cc3)c3ccc(OCC(O)CO)cc3)cc2)cc1 (centres unmarked): ◯

In the following, a different molecule is considered.
[ask] Requested read-out: Solubility to methanol, solid content 50% by weight. Entry: Oc1cccc(N(c2ccccc2)c2ccc(-c3ccc(N(c4ccccc4)c4cccc(O)c4)cc3)cc2)c1
[reply] X
